Values were extracted from patent US20260355188A1.

Documented Composite Synergy Score across a set of compounds
# System: RT4
# assay-explanation: In vitro combination synergy, RT4 (Cell-Titer Glo)
# Type: cell-based
# condition: combined with exemplary PRMT5 inhibitor, 120 h, sum of Loewe, Bliss, HSA and ZIP scores
Give your answer as a number; write no unit.

Study these solved cases before continuing.
CC1(C)CCC(c2ccc(Cl)cc2)=C(CN2CCN(c3ccc(C(=O)NS(=O)(=O)c4ccc(N[C@H](CCN5CCOCC5)CSc5ccccc5)c(S(=O)(=O)C(F)(F)F)c4)cc3)CC2)C1: 24
CC1(C)CCC(CN2CCN(c3ccc(C(=O)NS(=O)(=O)c4ccc(NCC5CCOCC5)c([N+](=O)[O-])c4)c(Oc4cnc5[nH]ccc5c4)c3)CC2)=C(c2ccc(Cl)cc2)C1: 0
Cc1c(-c2ccc(N3CCc4cccc(C(=O)Nc5nc6ccccc6s5)c4C3)nc2C(=O)O)cnn1CC12CC3CC(CC(C3)C1)C2: 40

Recall the recorded Composite Synergy Score for CN(C)CC#Cc1ccc(OCCCc2sc(N3CCc4cccc(C(=O)Nc5nc6ccccc6s5)c4C3)nc2C(=O)O)c(F)c1 with RT4 and state it.
37

====

Documented Composite Synergy Score across a set of compounds
# Tested on: H2052
# assay-explanation: In vitro combination synergy, H2052 (Cell-Titer Glo)
# Assay type: cell-based
# condition: combined with exemplary PRMT5 inhibitor, 120 h, sum of Loewe, Bliss, HSA and ZIP scores
Give your answer as a number; write no unit.

Study these solved cases before continuing.
Cc1c(-c2ccc(N3CCc4cccc(C(=O)Nc5nc6ccccc6s5)c4C3)nc2C(=O)O)cnn1CC12CC3CC(CC(C3)C1)C2 [A-1331852]: 12
CN(C)CC#Cc1ccc(OCCCc2sc(N3CCc4cccc(C(=O)Nc5nc6ccccc6s5)c4C3)nc2C(=O)O)c(F)c1 [A-1155463]: 14
CC1(C)CCC(c2ccc(Cl)cc2)=C(CN2CCN(c3ccc(C(=O)NS(=O)(=O)c4ccc(N[C@H](CCN5CCOCC5)CSc5ccccc5)c(S(=O)(=O)C(F)(F)F)c4)cc3)CC2)C1 [ABT-263, navitoclax]: 11

Now for the compound whose Composite Synergy Score we want.
Given CC1(C)CCC(CN2CCN(c3ccc(C(=O)NS(=O)(=O)c4ccc(NCC5CCOCC5)c([N+](=O)[O-])c4)c(Oc4cnc5[nH]ccc5c4)c3)CC2)=C(c2ccc(Cl)cc2)C1 [ABT-199, venetoclax] , state its recorded Composite Synergy Score.
−33

====

# System: H1437
# assay-explanation: In vitro combination synergy, H1437 (Cell-Titer Glo)
# Format: cell-based
# condition: combined with exemplary PRMT5 inhibitor, 120 h, sum of Loewe, Bliss, HSA and ZIP scores
Documented Composite Synergy Score across a set of compounds
Give your answer as a number; write no unit.

Study these solved cases before continuing.
CC1(C)CCC(CN2CCN(c3ccc(C(=O)NS(=O)(=O)c4ccc(NCC5CCOCC5)c([N+](=O)[O-])c4)c(Oc4cnc5[nH]ccc5c4)c3)CC2)=C(c2ccc(Cl)cc2)C1 [ABT-199, venetoclax]: 2
CC1(C)CCC(c2ccc(Cl)cc2)=C(CN2CCN(c3ccc(C(=O)NS(=O)(=O)c4ccc(N[C@H](CCN5CCOCC5)CSc5ccccc5)c(S(=O)(=O)C(F)(F)F)c4)cc3)CC2)C1 [ABT-263, navitoclax]: 13
Cc1c(-c2ccc(N3CCc4cccc(C(=O)Nc5nc6ccccc6s5)c4C3)nc2C(=O)O)cnn1CC12CC3CC(CC(C3)C1)C2 [A-1331852]: 36

Now for the compound whose Composite Synergy Score we want.
Given CN(C)CC#Cc1ccc(OCCCc2sc(N3CCc4cccc(C(=O)Nc5nc6ccccc6s5)c4C3)nc2C(=O)O)c(F)c1 [A-1155463] , state its recorded Composite Synergy Score.
17

====

# Test system: Mero83
# assay-explanation: In vitro combination synergy, Mero83 (Cell-Titer Glo)
# Type: cell-based
# condition: combined with exemplary PRMT5 inhibitor, 120 h, sum of Loewe, Bliss, HSA and ZIP scores
reported-endpoint: Composite Synergy Score
Give your answer as a number; write no unit.

CC1(C)CCC(c2ccc(Cl)cc2)=C(CN2CCN(c3ccc(C(=O)NS(=O)(=O)c4ccc(N[C@H](CCN5CCOCC5)CSc5ccccc5)c(S(=O)(=O)C(F)(F)F)c4)cc3)CC2)C1: −26

Given CC1(C)CCC(CN2CCN(c3ccc(C(=O)NS(=O)(=O)c4ccc(NCC5CCOCC5)c([N+](=O)[O-])c4)c(Oc4cnc5[nH]ccc5c4)c3)CC2)=C(c2ccc(Cl)cc2)C1 , state its recorded Composite Synergy Score.
20

Then what about the compound Cc1c(-c2ccc(N3CCc4cccc(C(=O)Nc5nc6ccccc6s5)c4C3)nc2C(=O)O)cnn1CC12CC3CC(CC(C3)C1)C2 ?
11

Then what about the compound CN(C)CC#Cc1ccc(OCCCc2sc(N3CCc4cccc(C(=O)Nc5nc6ccccc6s5)c4C3)nc2C(=O)O)c(F)c1 ?
−11
